procedure.summary: Solubility of pomalidomide in various solvents
Format: physicochemical
condition.summary: ethanol/water (1:1), 25 °C, aqueous with cosolvent or surfactant or cyclodextrin, thermodynamic from solid, Ethanol/Water (1:1); ambient temperature; read-out: Solubility
measurement.name: solubility

State the recorded solubility for this entry: Nc1cccc2c1C(=O)N(C1CCC(=O)NC1=O)C2=O (stereo not shown) [Pomalidomide]
540 µg/mL

* * *

procedure.summary: Approximate solubility of pomalidomide at 50°C in 96 solvent compositions (LC)
Type: physicochemical
condition.summary: binary solvent composition (main solvent and co-solvent), 50 °C, organic solvent or mixture, thermodynamic from solid, solvent system D1 of Table 7, read-out: Approximate Measured Solubility
measurement.name: solubility at 2 h (µg/mL)
Field format: number, assumed µg/mL, no unit text.

Could you tell me which solubility at 2 h is on file for Nc1cccc2c1C(=O)N(C1CCC(=O)NC1=O)C2=O (stereo not shown) [Pomalidomide] ?
1530
